# protocol: Binding affinity to DPC micelle assessed as increase in fluorescence emission intensity at maximum wavelength at 1 uM in TRIS buffer at pH 7.4 measured after 24 hrs by Trp emission fluorescence spectroscopy relative to TRIS buffer
Non-standard residues stand in square brackets, D forms with d. Residues, ends and D or L forms follow the SMILES beside them. Dap = NC[C@H](N)C(=O)O
observationType: fold change (FC)

• CC[C@H](C)[C@H](NC(=O)[C@H](CN)NC(=O)[C@@H](NC(=O)[C@H](CN)NC(=O)[C@@H](NC(=O)[C@@H](NC(=O)[C@H](CC(C)C)NC(=O)[C@H](CN)NC(=O)[C@@H](N)C(C)C)[C@@H](C)CC)C(C)C)C(C)C)C(=O)N[C@@H](Cc1c[nH]c2ccccc12)C(=O)N[C@@H](CN)C(=O)N[C@@H](CN)C(N)=O (H-V[Dap]LIV[Dap]V[Dap]IW[Dap][Dap]-NH2) = 2 to 6
